Attribute: IC50
System: SK-MEL-30;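 further: growth inhibition of SK-MEL-30 cells, determined with a cell viability assay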
Assay: cells
Type: functional, cell-based, Homo sapiens
Details: Homo sapiens, SK-MEL-30
Description: SANGER: Inhibition of human SK-MEL-30 cell growth in a cell viability assay.
Where a name gives a salt, the structure may show the parent alone.

Example compounds with recorded IC50:
INSERT INTO assay_data (compound, system_tested, experimental_readout, readout_value) VALUES
  ('CN(C)C(=N)NC(=N)N', 'SK-MEL-30', 'IC50', '> 20000 µM'),
  ('COc1cccc2c1C(=O)c1c(O)c3c(c(O)c1C2=O)C[C@@](O)(C(=O)CO)C[C@@H]3O[C@H]1C[C@H](N)[C@H](O)[C@H](C)O1', 'SK-MEL-30', 'IC50', '0.0356 µM'),
  ('CS(=O)(=O)c1ccc(C(=O)Nc2ccc(Cl)c(-c3ccccn3)c2)c(Cl)c1', 'SK-MEL-30', 'IC50', '> 10 µM'),
  ('COC1=CC(c2cc3ccccc3[nH]2)=N/C1=C\c1[nH]c(C)cc1C [OBATOCLAX MESYLATE]', 'SK-MEL-30', 'IC50', '< 0.0625 µM'),
  ('N#Cc1c(O)c2c(-c3ccc(-c4ccccc4O)cc3)csc2[nH]c1=O', 'SK-MEL-30', 'IC50', '> 1.02 µM');

For the next question, use this compound.
So the reported IC50 for `CC1(C)CNc2cc(NC(=O)c3cccnc3NCc3ccncc3)ccc21` , on SK-MEL-30, turned out to be > 2 µM

====

Tested on: ME-180;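 further: cell viability assay measuring growth inhibition of ME-180 cells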
Assay: cells
Type: functional, cell-based, Homo sapiens
Conditions: Homo sapiens, ME-180
Description: SANGER: Inhibition of human ME-180 cell growth in a cell viability assay.
pIC50: −log10 of the molar value.
Attribute: pIC50

INSERT INTO assay_data (smi, readout_value) VALUES
  ('COc1cc2c(Nc3ccc(NC(=O)c4ccccc4)cc3)ncnc2cc1OCCCN1CCOCC1', '< 5.40');

For the next question, use this compound.
Recorded pIC50 (compound `CN(C)C(=N)NC(=N)N` ): < 1.70

====

Attribute: IC50
Test system: GT3TKB;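 further: growth inhibition of the cell line, read out with a cell viability assay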
Assay: cells
Assay type: functional, cell-based, Homo sapiens
Settings: Homo sapiens, GT3TKB
Description: SANGER: Inhibition of human GT3TKB cell growth in a cell viability assay.

INSERT INTO assay_data (smi, experimental_readout, readout_value) VALUES
  ('Oc1ccc2ccccc2c1SSc1c(O)ccc2ccccc12', 'IC50', '> 32 µM'),
  ('COc1cc(N2CCN(C)CC2)ccc1Nc1ncc2c(n1)N(C)c1ccccc1C(=O)N2C', 'IC50', '> 8 µM');

For the next question, use this compound.
Recorded IC50 (compound `Cc1ccc(-c2c(C(=O)CCl)n(CCCO)c3ncnc(N)c23)cc1` ): > 4 µM

====

Attribute: IC50
Test system: G-361
Test: cells
Format: functional, cell-based, Homo sapiens
Settings: Homo sapiens, G-361

Example compounds with recorded IC50:
INSERT INTO assay_data (compound, experimental_readout, readout_value) VALUES
  ('CCC/C=C/C=C/C(=O)O[C@H]1/C(=C/C(=O)OC)C[C@H]2C[C@H]([C@@H](C)O)OC(=O)C[C@H](O)C[C@@H]3C[C@H](OC(C)=O)C(C)(C)[C@](O)(C[C@@H]4C/C(=C/C(=O)OC)C[C@H](/C=C/C(C)(C)[C@]1(O)O2)O4)O3', 'IC50', '> 8 nM'),
  ('C=C(c1ccc(C(=O)O)cc1)c1cc2c(cc1C)C(C)(C)CCC2(C)C', 'IC50', '> 8000 nM');

For the next question, use this compound.
Recorded IC50 (compound CC(C)CCN1c2nc(Nc3cc(F)c(O)c(F)c3)ncc2N(C)C(=O)C1C (stereo not drawn) ): 2120 nM

====

Tested on: HT1197
Test: cells
Type: functional, cell-based, Homo sapiens, HT-1197
Conditions: Homo sapiens, HT1197
Description: SANGER: Inhibition of human HT-1197 cell growth in a cell viability assay.
experimental_readout: IC50 (µM)
Report as a plain number; the unit µM is understood.

INSERT INTO assay_data (compound, experimental_readout, readout_value) VALUES
  ('CC(C)c1ccccc1Cc1cc(C(=O)Nc2ccc(S(=O)(=O)c3ccccc3C(C)(C)C)cc2)c(O)c(O)c1O', 'IC50', 5.95);

Recorded IC50 (compound COc1cccc2c1C(=O)c1c(O)c3c(c(O)c1C2=O)C[C@@](O)(C(=O)CO)C[C@@H]3O[C@H]1C[C@H](N)[C@H](O)[C@H](C)O1 [DOXORUBICIN] ): 0.213

Recorded IC50 (compound `Oc1ccc2ccccc2c1SSc1c(O)ccc2ccccc12` ): 10.3

====

System: MOLT-16
Assay: cells
Format: functional, cell-based, Homo sapiens
Conditions: Homo sapiens, MOLT-16
Description: SANGER: Inhibition of human MOLT-16 cell growth in a cell viability assay.
experimental_readout: IC50 (nM)
Report as a plain number; the unit nM is understood.

Example compounds with recorded IC50:
INSERT INTO results (smi, experimental_readout, readout_value) VALUES
  ('O=C(O)c1ccc(-c2c[nH]c3ncc(-c4ccccc4)cc23)cc1C1CCCC1', 'IC50', 3520),
  ('CO[C@H]1C[C@@H]2CC[C@@H](C)[C@@](O)(O2)C(=O)C(=O)N2CCCC[C@H]2C(=O)O[C@H]([C@H](C)C[C@@H]2CC[C@@H](OC(=O)C(C)(CO)CO)[C@H](OC)C2)CC(=O)[C@H](C)/C=C(\C)[C@@H](O)[C@@H](OC)C(=O)[C@H](C)C[C@H](C)/C=C/C=C/C=C/1C', 'IC50', 12.8);

For the next question, use this compound.
Recorded IC50 (compound `N[C@@H](CSC(c1ccccc1)(c1ccccc1)c1ccccc1)C(=O)O` ): 1890

====

Attribute: IC50
Tested on: TE-5;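 further: inhibition of cell growth, read out by a cell viability assay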
Experiment: cells
Format: functional, cell-based, Homo sapiens
Conditions: Homo sapiens, TE-5
Description: SANGER: Inhibition of human TE-5 cell growth in a cell viability assay.
Structures can show the parent of a compound that is named as a salt.

Example molecules with recorded IC50:
INSERT INTO assay_data (molecule, readout_value) VALUES
  ('COc1cc2ncn(-c3cc(OCc4ccccc4S(C)(=O)=O)c(C#N)s3)c2cc1OC [GSK-319347A]', '> 5000 nM'),
  ('Nc1ccn([C@@H]2O[C@H](CO)[C@@H](O)C2(F)F)c(=O)n1 [GEMCITABINE]', '< 4 nM'),
  ('CS(=O)(=O)c1ccc(C(=O)Nc2ccc(Cl)c(-c3ccccn3)c2)c(Cl)c1 [VISMODEGIB]', '> 10000 nM'),
  ('Cc1cn(-c2cc(NC(=O)c3ccc(C)c(Nc4nccc(-c5cccnc5)n4)c3)cc(C(F)(F)F)c2)cn1 [NILOTINIB]', '> 2000 nM'),
  ('C#Cc1cccc(Nc2ncnc3cc(OCCOC)c(OCCOC)cc23)c1 [ERLOTINIB]', '> 2000 nM'),
  ('CCN(CC)CCCCNc1ncc2cc(-c3cc(OC)cc(OC)c3)c(NC(=O)NC(C)(C)C)nc2n1 [PD-173074]', '> 2000 nM');

So the reported IC50 for COC1=CC(c2cc3ccccc3[nH]2)=N/C1=C\c1[nH]c(C)cc1C [OBATOCLAX MESYLATE] , on TE-5, turned out to be 483 nM

So the reported IC50 for COc1cccc2c1C(=O)c1c(O)c3c(c(O)c1C2=O)C[C@@](O)(C(=O)CO)C[C@@H]3O[C@H]1C[C@H](N)[C@H](O)[C@H](C)O1 [DOXORUBICIN] , on TE-5, turned out to be 37.5 nM

So the reported IC50 for `CC(C)c1ccccc1Cc1cc(C(=O)Nc2ccc(S(=O)(=O)c3ccccc3C(C)(C)C)cc2)c(O)c(O)c1O` , on TE-5, turned out to be 884 nM

So the reported IC50 for O=C(O)c1ccc(-c2c[nH]c3ncc(-c4ccccc4)cc23)cc1C1CCCC1 [GSK-650394] , on TE-5, turned out to be > 16000 nM

So the reported IC50 for Nc1cccc2c1CN(C1CCC(=O)NC1=O)C2=O (stereo not drawn) [LENALIDOMIDE] , on TE-5, turned out to be > 5000 nM

So the reported IC50 for CO[C@H]1C[C@@H]2CC[C@@H](C)[C@@](O)(O2)C(=O)C(=O)N2CCCC[C@H]2C(=O)O[C@H]([C@H](C)C[C@@H]2CC[C@@H](OC(=O)C(C)(CO)CO)[C@H](OC)C2)CC(=O)[C@H](C)/C=C(\C)[C@@H](O)[C@@H](OC)C(=O)[C@H](C)C[C@H](C)/C=C/C=C/C=C/1C [TEMSIROLIMUS] , on TE-5, turned out to be > 200 nM

So the reported IC50 for CCN(CC)CCNC(=O)c1c(C)[nH]c(/C=C2\C(=O)Nc3ccc(F)cc32)c1C [SUNITINIB] , on TE-5, turned out to be > 8000 nM

====

Tested on: MHH-NB-11
Experiment: cells
Type: functional, cell-based, Homo sapiens
Conditions: Homo sapiens, MHH-NB-11
Description: SANGER: Inhibition of human MHH-NB-11 cell growth in a cell viability assay.
Where a name gives a salt, the structure may show the parent alone.
experimental_readout: IC50 (nM)
Report as a plain number; the unit nM is understood.

Example compounds with recorded IC50:
INSERT INTO assay_data (compound, readout_value) VALUES
  ('N#Cc1c(O)c2c(-c3ccc(-c4ccccc4O)cc3)csc2[nH]c1=O', 323),
  ('COc1cccc2c1C(=O)c1c(O)c3c(c(O)c1C2=O)C[C@@](O)(C(=O)CO)C[C@@H]3O[C@H]1C[C@H](N)[C@H](O)[C@H](C)O1', 220),
  ('COC1=CC(c2cc3ccccc3[nH]2)=N/C1=C\c1[nH]c(C)cc1C [OBATOCLAX MESYLATE]', 3440);

Recorded IC50 (compound `OCCCNc1cc(-c2ccnc(Nc3cccc(Cl)c3)n2)ccn1` ): 217

Recorded IC50 (compound `Nc1ccn([C@@H]2O[C@H](CO)[C@@H](O)C2(F)F)c(=O)n1` ): 386

Ref: ChEMBL document CHEMBL1201861
